# ASSAY_NAME: Inhibition of F1F0-ATPase hydrolysis activity in bovine submitochondrial particles
# Parameters: species or system Bos taurus
The entries below come with measured EC50 values attached.
TEST_READOUT: EC50 (µM)

[
  {
    "COMPOUND": "O=C1CN=C(c2ccccc2Cl)c2cc([N+](=O)[O-])ccc2N1",
    "READOUT_UNIT": "µM",
    "CMP": "=",
    "OBSERVED_MEASUREMENT": 240
  },
  {
    "COMPOUND": "CN1C(=O)CN=C(c2ccccc2)c2cc(Cl)ccc21",
    "READOUT_UNIT": "µM",
    "CMP": ">",
    "OBSERVED_MEASUREMENT": 300
  },
  {
    "COMPOUND": "CN1C(=O)CN=C(c2ccc(Cl)cc2)c2cc(Cl)ccc21",
    "READOUT_UNIT": "µM",
    "CMP": ">",
    "OBSERVED_MEASUREMENT": 300
  },
  {
    "COMPOUND": "CCC(C)N(C)C(=O)c1cc2ccccc2c(-c2ccccc2Cl)n1 (stereo not given)",
    "READOUT_UNIT": "µM",
    "CMP": "=",
    "OBSERVED_MEASUREMENT": 230
  },
  {
    "COMPOUND": "CN1C(=O)C(Cc2ccc3ccccc3c2)N=C(c2ccc(O)cc2)c2cc(Cl)ccc21 (stereo not given)",
    "READOUT_UNIT": "µM",
    "CMP": "=",
    "OBSERVED_MEASUREMENT": 8.9
  }
]
